- system-name: EPHA2 (Homo sapiens)
- Construct: purchased Life Technologies
- Sequence (P29317 24-976): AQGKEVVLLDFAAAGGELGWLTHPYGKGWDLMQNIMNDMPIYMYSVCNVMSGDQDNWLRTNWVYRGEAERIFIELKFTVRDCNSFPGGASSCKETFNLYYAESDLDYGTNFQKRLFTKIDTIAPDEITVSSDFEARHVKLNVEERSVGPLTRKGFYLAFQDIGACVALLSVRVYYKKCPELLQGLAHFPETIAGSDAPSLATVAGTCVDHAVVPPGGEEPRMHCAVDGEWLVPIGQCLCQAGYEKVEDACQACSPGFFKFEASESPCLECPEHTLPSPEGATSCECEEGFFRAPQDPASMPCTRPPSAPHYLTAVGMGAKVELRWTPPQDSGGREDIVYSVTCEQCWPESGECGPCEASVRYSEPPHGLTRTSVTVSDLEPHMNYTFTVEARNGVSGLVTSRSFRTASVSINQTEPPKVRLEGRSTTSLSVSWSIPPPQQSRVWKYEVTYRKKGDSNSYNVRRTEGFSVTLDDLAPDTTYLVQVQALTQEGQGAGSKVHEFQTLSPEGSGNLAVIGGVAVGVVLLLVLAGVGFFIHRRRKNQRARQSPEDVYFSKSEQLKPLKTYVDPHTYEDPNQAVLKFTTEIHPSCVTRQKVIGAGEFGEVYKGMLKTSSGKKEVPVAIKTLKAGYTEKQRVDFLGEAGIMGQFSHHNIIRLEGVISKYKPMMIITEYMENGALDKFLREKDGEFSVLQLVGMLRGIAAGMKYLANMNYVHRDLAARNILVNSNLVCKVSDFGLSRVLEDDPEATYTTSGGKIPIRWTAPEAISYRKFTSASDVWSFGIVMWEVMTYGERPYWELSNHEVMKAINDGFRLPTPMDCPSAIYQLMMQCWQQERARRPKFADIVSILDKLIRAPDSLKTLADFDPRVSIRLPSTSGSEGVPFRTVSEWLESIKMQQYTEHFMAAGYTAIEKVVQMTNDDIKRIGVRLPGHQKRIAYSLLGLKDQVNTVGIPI
- run-description: EPHA2 kinase assay, IMAP fluorescence polarization
- Format: biochemical
- condition-notes: 50 or 100 μM ATP, Tris pH 8.5, average
- Experimental: SIK2, SIK1, SIK3, Abl, Src and EPHA2 Kinase Assays SIK2, SIK1, SIK3, Abl, Src and EPHA2 assays were performed using an IMAP fluorescence polarization assay format (Molecular Devices Inc.). […] After incubation to allow the detection reagents to bind to the phosphorylated peptide, fluorescence polarization was measured on a Tecan Infinite plate reader at excitation (470 nm) and emission (530 nm) wavelengths. […]
pKi: −log10 of the molar value.
The threshold is inclusive: pKi of exactly 7 counts as y; values below receive n.

>>> class_name("Cc1cccc(F)c1-c1cc(NC2CN(C)C2)c2ccncc2c1")
"n"
>>> class_name("Cc1cccc(F)c1-c1cc(NC[C@@H]2CCCN2C)c2cc(N)ncc2c1")
"n"
>>> class_name("Cc1cccc(F)c1-c1cc(NC2CCOCC2)c2cc(N)ncc2c1")
"n"
>>> class_name("Cc1cccc(F)c1-c1cc2cnc(N)cc2c(NC2CCNCC2)c1F")
"y"
>>> class_name("Cc1cccc(Cl)c1-c1cc(NC2CCNCC2)c2nc(N)ncc2c1")
"y"
>>> class_name("Cc1cccc(F)c1-c1cc(NC2CNC2)c2cc(N)ncc2c1")
"n"

QUERY: Answer whether pKi of Cc1cccc(F)c1-c1cc(NC2CCNCC2)c2nc(N)ncc2c1 is greater than or equal to 7.
RESULT: y

QUERY: For CCN1CCC(Nc2cc(-c3c(C)cccc3F)cc3cncnc23)CC1 then?
RESULT: n

Just for reference, patent US12637428B2 is where these values come from.
